Read-out: Plasminogen activator inhibitor-1 (PAI1), SERPINE1 (gene 5054)
Experimental Details: BSK_BE3C_PAI1: BioMAP Diversity Plus: BE3C Assay for Plasminogen activator inhibitor-1 (PAI1) Biomarker Activity (AID 2283037)
Test Settings: primary human bronchial epithelial cells; actives raise or lower the signal
Calls of active or inactive are those of the source. The calls were made as follows: active = hit-call score of the fitted dose curve at least 0.9, where 1 is the maximum; inactive = score below 0.9.
Pick one: yes (1) = active, no (0) = inactive

[Q] What is the recorded call for this compound in the test? CC[C@H](C)[C@@H](C(=O)O)n1sc2ccccc2c1=O
[A] no (0)

[Q] What is the recorded call for this compound in the test? CC(C)CCCCCCOC(=O)CCCCC(=O)OCCCCCCC(C)C
[A] no (0)

[Q] What is the recorded call for this compound in the test? OC1CCCCC1
[A] no (0)

[Q] What is the recorded call for this compound in the test? c1ccc2c(c1)ccc1ccccc12
[A] no (0)

[Q] What is the recorded call for this compound in the test? CCCCCCC(=O)O
[A] no (0)

[Q] What is the recorded call for this compound in the test? CN1CCC[C@H]1c1cccnc1
[A] no (0)

[Q] What is the recorded call for this compound in the test? c1ccc2c(c1)Cc1ccccc1-2
[A] no (0)

[Q] What is the recorded call for this compound in the test? CCCOC(=O)c1ccc(O)cc1
[A] no (0)

[Q] What is the recorded call for this compound in the test? C=C(C)C(=O)OCCC(F)(F)C(F)(F)C(F)(F)C(F)(F)C(F)(F)C(F)(F)F
[A] no (0)

[Q] What is the recorded call for this compound in the test? CCCCCCCCCCCCc1ccccc1S(=O)(=O)O
[A] yes (1)

[Q] What is the recorded call for this compound in the test? CC(C)(C)c1cc(C(C)(C)C)c(O)c(C(C)(C)C)c1
[A] no (0)

[Q] What is the recorded call for this compound in the test? CCCCC(CC)COC(=O)CCCCC(=O)OCC(CC)CCCC (stereo not given)
[A] no (0)

[Q] What is the recorded call for this compound in the test? C#C[C@]1(O)CC[C@H]2[C@@H]3CCC4=CC(=O)CC[C@@H]4[C@H]3CC[C@@]21C
[A] no (0)

[Q] What is the recorded call for this compound in the test? NCC(F)(F)C(F)(F)C(F)(F)C(F)(F)C(F)(F)C(F)(F)C(F)(F)F
[A] no (0)

[Q] What is the recorded call for this compound in the test? CCCCCCCCCCCCN1CCCC1=O
[A] yes (1)

[Q] What is the recorded call for this compound in the test? NC(=O)N1C(=O)C(C(=O)c2cc(Cl)cs2)c2cc(F)c(Cl)cc21 (stereo not given)
[A] yes (1)

[Q] What is the recorded call for this compound in the test? CCC(C)(C)C1CCC(O)CC1 (stereo not given)
[A] no (0)

[Q] What is the recorded call for this compound in the test? CN(C)C=O
[A] no (0)

[Q] What is the recorded call for this compound in the test? COCC(C)OCC(C)O (stereo not given)
[A] no (0)

[Q] What is the recorded call for this compound in the test? Oc1cc2ccccc2c2ccccc12
[A] yes (1)

* * *

Target Desc: Nuclear receptor subfamily 1 group I member 2 (Homo sapiens)
Experimental Details: ATG_PXR_TRANS: Attagene TRANS-FACTORIAL HepG2 Assay for human Pregnane X Receptor (PXR) (AID 2283008)
Results filed as inconclusive are left out. The source made the active and inactive calls. How the source made its calls: active means hit-call score of the fitted dose curve at least 0.9, where 1 is the maximum; inconclusive means response in the unintended direction; inactive means score below 0.9.
Pick one: active, inactive

[Q] What is the recorded call for this compound in the test? CCCOc1sc(C(=O)N2CCC(c3cc(CN)ccc3F)CC2)c(C)c1Br
[A] inactive

[Q] What is the recorded call for this compound in the test? CC(=O)CC(C)(C)O
[A] inactive

[Q] What is the recorded call for this compound in the test? OCCC(F)(F)C(F)(F)C(F)(F)C(F)(F)C(F)(F)C(F)(F)F
[A] inactive

[Q] What is the recorded call for this compound in the test? CCCCCCCCCCCCN1CCCC1=O
[A] active

[Q] What is the recorded call for this compound in the test? CCCCC[C@H](O)CC(=O)CCc1ccc(O)c(OC)c1
[A] active

[Q] What is the recorded call for this compound in the test? O=c1c(-c2ccc(O)cc2)coc2cc(O)ccc12
[A] inactive

[Q] What is the recorded call for this compound in the test? NCC(F)(F)C(F)(F)C(F)(F)C(F)(F)C(F)(F)C(F)(F)C(F)(F)F
[A] inactive

[Q] What is the recorded call for this compound in the test? CC(C)(C)c1cccc(C(C)(C)C)c1O
[A] active

* * *

Read-out: Lipoprotein lipase (LPL), LPL (gene 4023)
Experimental Details: LTEA_HepaRG_LPL: Life Technologies and Expression Analysis (LTEA) Assay for Lipoprotein lipase (LPL) using HepaRG (AID 2283515)
Test Settings: mRNA level, 48 h; actives raise or lower the signal
Activity calls are given as the source filed them. Rule for the calls: active = hit-call score of the fitted dose curve at least 0.9, where 1 is the maximum; inactive = score below 0.9.
Pick one: active, inactive

[Q] What is the recorded call for this molecule in the test? Oc1cc2ccccc2c2ccccc12
[A] active

[Q] What is the recorded call for this molecule in the test? CC[C@H](c1ccc(O)cc1)[C@@H](CC)c1ccc(O)cc1
[A] active

[Q] What is the recorded call for this molecule in the test? Nc1cccc2c(N)cccc12
[A] inactive

[Q] What is the recorded call for this molecule in the test? CC#C[C@]1(O)CC[C@H]2[C@@H]3CCC4=CC(=O)CCC4=C3[C@@H](c3ccc(N(C)C)cc3)C[C@@]21C
[A] active

[Q] What is the recorded call for this molecule in the test? COC(=O)CCCCC(=O)OC
[A] inactive

[Q] What is the recorded call for this molecule in the test? CCc1nn(C2CCCCC2)c2cc(C3(C#N)CCC(C(=O)O)CC3)ccc12 (stereo not drawn)
[A] active

[Q] What is the recorded call for this molecule in the test? CCCCCCCCC(=O)O
[A] inactive

[Q] What is the recorded call for this molecule in the test? ClC1=C(Cl)C(Cl)(Cl)C(Cl)=C1Cl
[A] inactive

[Q] What is the recorded call for this molecule in the test? c1ccc2c(c1)Cc1ccccc1-2
[A] inactive

[Q] What is the recorded call for this molecule in the test? O=C(O)Cc1cc(I)c(Oc2cc(I)c(O)c(I)c2)c(I)c1
[A] active

[Q] What is the recorded call for this molecule in the test? CC(O)CO (stereo not drawn)
[A] inactive

[Q] What is the recorded call for this molecule in the test? NC(=O)N1C(=O)C(C(=O)c2cc(Cl)cs2)c2cc(F)c(Cl)cc21 (stereo not drawn)
[A] active

[Q] What is the recorded call for this molecule in the test? CCCCCCCCCCCCN1CCCC1=O
[A] inactive

* * *

Target Desc: Nuclear receptor subfamily 1 group I member 2 (Homo sapiens) (UniProt O75469)
Sequence (O75469 whole entry, looked up): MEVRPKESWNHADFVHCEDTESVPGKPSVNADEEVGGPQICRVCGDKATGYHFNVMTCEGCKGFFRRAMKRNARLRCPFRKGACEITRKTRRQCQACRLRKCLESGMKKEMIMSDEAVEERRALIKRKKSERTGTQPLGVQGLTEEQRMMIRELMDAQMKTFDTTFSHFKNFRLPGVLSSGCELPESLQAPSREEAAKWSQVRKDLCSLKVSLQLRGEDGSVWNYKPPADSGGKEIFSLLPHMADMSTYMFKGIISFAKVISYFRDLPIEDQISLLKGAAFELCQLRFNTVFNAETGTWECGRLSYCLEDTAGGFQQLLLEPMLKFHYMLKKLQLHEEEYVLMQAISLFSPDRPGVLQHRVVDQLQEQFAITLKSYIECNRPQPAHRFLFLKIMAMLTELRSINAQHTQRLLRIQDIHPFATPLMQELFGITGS
Experimental Details: ATG_PXR_TRANS: Attagene TRANS-FACTORIAL HepG2 Assay for human Pregnane X Receptor (PXR) (AID 2283008)
Records with an inconclusive call do not appear. Calls of active or inactive are those of the source. How the source made its calls: active means hit-call score of the fitted dose curve at least 0.9, where 1 is the maximum; inconclusive means response in the unintended direction; inactive means score below 0.9.
Assay Readout: AC50

- Compound: "CCC(=C(c1ccc(O)cc1)c1ccc(OCCN(C)C)cc1)c1ccccc1"
  Target Desc: "Nuclear receptor subfamily 1 group I member 2 (Homo sapiens) (UniProt O75469)"
  Observed Measurement: "3.28 µM (active) [middle of 4 runs]"
- Compound: "CCOC(=O)CC(O)(CC(=O)OCC)C(=O)OCC"
  Target Desc: "Nuclear receptor subfamily 1 group I member 2 (Homo sapiens) (UniProt O75469)"
  Observed Measurement: "inactive"
- Compound: "Cc1ccc(S(=O)(=O)O)c(C)c1"
  Target Desc: "Nuclear receptor subfamily 1 group I member 2 (Homo sapiens) (UniProt O75469)"
  Observed Measurement: "inactive"
- Compound: "CCCCCCCCCCCCCCCS(=O)(=O)Oc1ccccc1"
  Target Desc: "Nuclear receptor subfamily 1 group I member 2 (Homo sapiens) (UniProt O75469)"
  Observed Measurement: "1.21 µM (active)"
- Compound: "OCCC(F)(F)C(F)(F)C(F)(F)C(F)(F)C(F)(F)C(F)(F)C(F)(F)C(F)(F)F"
  Target Desc: "Nuclear receptor subfamily 1 group I member 2 (Homo sapiens) (UniProt O75469)"
  Observed Measurement: "inactive"
- Compound: "COc1cc(CCC(=O)CC(=O)CCc2ccc(O)c(OC)c2)ccc1O"
  Target Desc: "Nuclear receptor subfamily 1 group I member 2 (Homo sapiens) (UniProt O75469)"
  Observed Measurement: "5.26 µM (active)"

[Q] GET /values?readout=AC50&item= O=C(O)c1ccccc1C(c1ccc(O)cc1)c1ccc(O)cc1
[A] inactive

[Q] GET /values?readout=AC50&item= CC(O)C(=O)O (configuration not stated)
[A] inactive

[Q] GET /values?readout=AC50&item= CN1CCN(c2ccccc2/C=C2\SCCN(c3ccc(Cl)c(Cl)c3)C2=O)CC1
[A] 3.7 µM (active)

[Q] GET /values?readout=AC50&item= Cc1cc(C)c(O)c(C)c1
[A] inactive

[Q] GET /values?readout=AC50&item= c1ccc2c(c1)ccc1ccccc12
[A] inactive

[Q] GET /values?readout=AC50&item= Cc1cc(CCN2CCN(c3nsc4ccccc34)CC2)cc2c1NC(=O)CC2(C)C
[A] 0.742 µM (active)

Origin of the recorded values: PubChem BioAssay (EPA / NIEHS)
